Test Protocol: in vitro
Assay Context: human
Positions of bridges follow the written chain, without caps; N, C: chain ends. Non-standard residues stand in square brackets, D forms with d. Residues, ends and D or L forms follow the SMILES beside them. *: point of attachment. Isonicotinoyl(2-Ph) = O=C(c1ccnc(-c2ccccc2)c1)*; Decanoyl(3R-OH) = CCCCCCC[C@@H](O)CC(=O)*; dDab = NCC[C@@H](N)C(=O)O; Heptanoyl = CCCCCCC(=O)*; dDap = NC[C@@H](N)C(=O)O; Dab = NCC[C@H](N)C(=O)O; Dap = NC[C@H](N)C(=O)O

Molecule	CC50 at 24 h
CCCCCCC(=O)N[C@H](CN)C(=O)N[C@H]1CCNC(=O)[C@H](CC(C)C)NC(=O)[C@H](CCN)NC(=O)[C@H](CCN)NC(=O)[C@H](CC(C)C)NC(=O)[C@@H](Cc2ccccc2)NC(=O)[C@H](CCN)NC1=O [compound 9190] (Heptanoyl-[dDap][Dab][Dab][dF]L[Dab][Dab]L; lactam 2-C)	> 300 µM
CC(C)C[C@@H]1NC(=O)[C@H](CCN)NC(=O)[C@H](CCN)NC(=O)[C@H](CC(C)C)NC(=O)[C@@H](Cc2ccccc2)NC(=O)[C@H](CCN)NC(=O)[C@@H](NC(=O)[C@@H](CCN)NC(=O)c2ccnc(-c3ccccc3)c2)CCNC1=O [compound 6525] ({Isonicotinoyl(2-Ph)}-[dDab][Dab][Dab][dF]L[Dab][Dab]L; lactam 2-C)	> 300 µM
CCCCCCC[C@@H](O)CC(=O)N[C@H](CCN)C(=O)N[C@H]1CCNC(=O)[C@H](CC(C)C)NC(=O)[C@H](CN)NC(=O)[C@H](CCN)NC(=O)[C@H](CC(C)C)NC(=O)[C@@H](Cc2ccccc2)NC(=O)[C@H](CCN)NC1=O [compound 987] ({Decanoyl(3R-OH)}-[dDab][Dab][Dab][dF]L[Dab][Dap]L; lactam 2-C)	> 300 µM
